meta.source: patent US20230104936A1

Tested on: TFEB
assay_name: TFEB nuclear translocation assay, HeLa wt cells
Format: cell-based
conditions_used: Homo sapiens, HeLa, 2 h, 2 hrs compound treatment, Table 1 does not say HeLa wt or TRPML1 KO
Provide the recorded AC50 for the entries that follow.

Documented AC50 of CN(C)S(=O)(=O)c1ccc(S(=O)(=O)Nc2cccc(F)c2N2CCC3(CCNC3=O)CC2)cc1 [Compound A-792] : ≥ 10 µM

get_value(item= CN(C)S(=O)(=O)c1ccc(S(=O)(=O)Nc2ccccc2N2CCN(CC(F)(F)C(F)F)CC2)cc1 [Compound A-551] , readout=AC50) returns ≤ 2 µM

molecule COCC1(C)CCN(c2ccccc2NS(=O)(=O)Cc2ccc(S(=O)(=O)COC)cc2)CC1 [Compound A-747] , AC50 observed: ≥ 10 µM

The recorded AC50 for CC1(C)CC2(CCN(c3ccccc3NS(=O)(=O)c3cccc(C4CC4)c3)CC2)CO1 [Compound A-669] is ≤ 2 µM

Looking up CN(C)C1CCCC12CCN(c1ccccc1NS(=O)(=O)c1ccc(S(=O)(=O)N(C)C)cc1)CC2 (stereo not shown) [Compound A-281] , I found its AC50 recorded as ≥ 10 µM

Record Cc1nc(C)c(S(=O)(=O)Nc2ccccc2N2CCC(CN3C[C@@H](C)O[C@@H](C)C3)CC2)s1 [Compound A-756] . Reported AC50: 2.01 to 8 µM

get_value(item= COCC1(C)CCN(c2ccccc2NS(=O)(=O)Cc2cccc(OC)c2)CC1 [Compound A-596] , readout=AC50) returns 2.01 to 8 µM

The molecule identified as CCN1CCN(c2ccc(Cl)cc2NS(=O)(=O)c2ccc3c(c2)CCC3)CC1 [Compound A-289] registered its AC50 at ≥ 10 µM

Entry CN(C)S(=O)(=O)c1ccc(S(=O)(=O)Cc2cccc(Cl)c2N2CCOCC2)cc1 [Compound A-327] ; AC50 = ≥ 10 µM

The recorded AC50 for entry C=CP(=O)(C=C)c1ccccc1NS(=O)(=O)c1ccc(S(=O)(=O)N(C)C)cc1 [Compound A-227] equals ≥ 10 µM

// AC50 value for CN1CC2(CCN(c3ccccc3NS(=O)(=O)c3ccc(S(C)(=O)=O)cc3)CC2)c2ccc(F)cc21 [Compound A-251] : ≤ 2 µM

According to the records, this molecule COCC1(C)CCN(c2ccccc2NS(=O)(=O)Cc2ccc(C)cc2)CC1 [Compound A-578] displays AC50 of 2.01 to 8 µM

Per the records, this molecule ( COCC1(C)CCN(c2ccc(OC)cc2NS(=O)(=O)c2ccc3c(c2)CCC3)CC1 [Compound A-630] ) has AC50 equal to ≤ 2 µM

Quick note, AC50 for COCC1(C)CCN(c2ccccc2NS(=O)(=O)c2ccc3c(c2)OC2(CCC2)O3)CC1 [Compound A-685] landed at ≤ 2 µM

Record CNC(=O)C1(c2ccc(F)cc2F)CCN(c2ccccc2NS(=O)(=O)c2ccc(S(=O)(=O)N(C)C)cc2)CC1 [Compound A-216] . Reported AC50: ≤ 2 µM

# AC50 of Cc1ccc(NS(=O)(=O)c2ccccc2N2CCC(c3ccc(Cl)cc3F)CC2)cc1 [Compound A-111] = ≥ 10 µM

# molecule CC(c1cccc(F)c1N1CCC(CN2C[C@H]3C[C@@H](C2)O3)CC1)S(=O)(=O)c1ccc(S(=O)(=O)N(C)C)cc1 (stereo partly shown) [Compound A-837] ; its AC50 = ≤ 2 µM

Reported AC50 ( COCC1(C)CCN(c2ccccc2NS(=O)(=O)c2ccc3c(c2)COC3(C)C)CC1 [Compound A-682] ) = 2.01 to 8 µM

Data point: CN1CC2(CCN(c3ccccc3NS(=O)(=O)c3ccc(SC(C)(C)C)cc3)CC2)c2ccc(F)cc21 [Compound A-517] ; AC50 = 2.01 to 8 µM

The reported value for CN(C)S(=O)(=O)c1ccc(S(=O)(=O)Nc2ccccc2N2CCC(C3CC3(F)F)CC2)cc1 (stereo not shown) [Compound A-479] in terms of AC50 is ≤ 2 µM

Value of measured AC50 for the entry COC1(C(=O)N2CCN(c3ccccc3NS(=O)(=O)c3ccc(S(=O)(=O)N(C)C)cc3)CC2)CCC1 [Compound A-458] : 2.01 to 8 µM

Please fill in: AC50 reported for Cc1nn(C)c(NS(=O)(=O)c2ccc(S(=O)(=O)N(C)C)cc2)c1C1CCN(c2ccc(Cl)cc2F)CC1 [Compound A-75] = ≥ 10 µM

Reported AC50 ( Cc1ccc(N2CCOCC2)c(NS(=O)(=O)Cc2ccccc2)c1 [Compound A-628] ) = 2.01 to 8 µM

CP(=O)(Nc1ccccc1N1CCC(c2ccc(Cl)cc2F)CC1)c1ccccc1 (stereo not shown) [Compound A-66] has a reported AC50 of ≥ 10 µM

The molecule COCC1(C)CCN(c2ccccc2NC(C)c2ccc(S(=O)(=O)N(C)C)cc2)CC1 (stereo not shown) [Compound A-490] showed AC50 equal to ≥ 10 µM

Note to self: AC50 recorded for Cc1cc(Cl)c(N2CCOCC2)c(NS(=O)(=O)c2ccc(S(=O)(=O)N(C)C)cc2)c1 [Compound A-888] was 2.01 to 8 µM

According to the records, this molecule COCC1(C)CCN(c2ccccc2NS(=O)(=O)c2ccc3c(c2)C(C)(C)OC3)CC1 [Compound A-683] displays AC50 of 2.01 to 8 µM

# AC50 (molecule: CC(C)(C)C(=O)N1CCN(c2ccccc2NS(=O)(=O)c2ccc(C3CC3(F)F)cc2)CC1 (stereo not shown) [Compound A-528] ) is 2.01 to 8 µM

Briefly, AC50 measured for COCC1(C)CCN(c2ccccc2NS(=O)(=O)c2cccc(C)c2)CC1 [Compound A-618] : 2.01 to 8 µM

The molecule listed as CC1(C)CC2(CCN(c3ccccc3NS(=O)(=O)c3ccc4c(c3)COCC4)CC2)CO1 [Compound A-715] has a reported AC50 of ≤ 2 µM

Per the records, this molecule ( O=S(=O)(Nc1cccc(F)c1N1CCC(CN2C3COCC2C3)CC1)c1ccc(C(F)(F)C2CC2)cc1 [Compound A-898] ) has AC50 equal to ≥ 10 µM
